Sequence of the target: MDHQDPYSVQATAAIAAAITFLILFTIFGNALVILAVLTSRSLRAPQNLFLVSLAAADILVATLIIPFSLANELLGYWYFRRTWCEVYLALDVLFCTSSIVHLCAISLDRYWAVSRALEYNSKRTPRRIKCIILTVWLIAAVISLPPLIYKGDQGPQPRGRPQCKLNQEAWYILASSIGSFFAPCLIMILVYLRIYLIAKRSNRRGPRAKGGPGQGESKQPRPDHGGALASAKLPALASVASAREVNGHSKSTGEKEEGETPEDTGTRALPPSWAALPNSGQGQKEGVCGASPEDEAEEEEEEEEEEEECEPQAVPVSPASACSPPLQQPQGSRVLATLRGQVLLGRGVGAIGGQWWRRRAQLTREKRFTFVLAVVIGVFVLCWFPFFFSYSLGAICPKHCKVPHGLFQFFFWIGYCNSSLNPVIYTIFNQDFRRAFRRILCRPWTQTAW
parameter-measured: AC50

Enquiry: AC50 lookup needed for Clc1ccc(C(Cn2ccnc2)OCc2ccc(Sc3ccccc3)cc2)c(Cl)c1 (stereo not given) [FENTICONAZOLE] , thanks.
Return: 12 µM

Enquiry: Which AC50 is listed for O=C(O)c1ccccc1OP(=O)(O)O [FOSFOSAL] ?
Return: > 30 µM

Enquiry: So what does the record say about AC50 for CCCCCCOC(=O)CCC(=O)CN [HEXAMINOLEVULINATE] ?
Return: > 30 µM

Enquiry: I would be grateful if you could share the reported AC50 for C=CC(N)CCC(=O)O (stereo not given) [VIGABATRIN] .
Return: > 10 µM

Enquiry: I am curious: what AC50 value has been reported for CC(=O)OCC[N+](C)(C)C [ACETYLCHOLINE] ?
Return: > 10 µM

* * *

Record set of AC50 for target or system Cholecystokinin receptor type A (Homo sapiens, UniProt P32238). Also: assay procedure not described here.

Answered examples (8):
compound	AC50
CCCCNc1ccc(C(=O)OCCN(C)C)cc1	> 30 µM
CCCCCCOC(=O)CCC(=O)CN [HEXAMINOLEVULINATE]	> 30 µM
CC(=O)OCC(=O)[C@@]1(O)CC[C@H]2[C@@H]3CCC4=CC(=O)CC[C@]4(C)C3=CC[C@@]21C [ANECORTAVE ACETATE]	> 10 µM
C[C@]12CC[C@H](O)CC1=CC[C@@H]1[C@@H]2CC[C@]2(C)C(c3cccnc3)=CC[C@@H]12	> 30 µM
CC(=O)c1ccc2c(c1)N(CCCN1CCC(CCO)CC1)c1ccccc1S2	> 30 µM
CCCCC[C@H](O)/C=C/[C@H]1[C@H](O)CC(=O)[C@@H]1C/C=C\CCCC(=O)O	> 30 µM
CC(C)N(CCCCOCC(=O)NS(C)(=O)=O)c1cnc(-c2ccccc2)c(-c2ccccc2)n1	> 30 µM
COCCOC(=O)C1=C(C)NC(C)=C(C(=O)OC/C=C/c2ccccc2)C1c1cccc([N+](=O)[O-])c1 (configuration not stated)	> 30 µM

Enquiry: Value wanted: AC50 (Cholecystokinin receptor type A (Homo sapiens, UniProt P32238)) of entry CC(=O)/N=c1/sc(S(N)(=O)=O)nn1C [METHAZOLAMIDE]
Return: > 10 µM

Enquiry: Requested read-out AC50, target or system Cholecystokinin receptor type A (Homo sapiens, UniProt P32238), entry `COC(=O)N[C@@H](C)CNc1nccc(-c2cn(C(C)C)nc2-c2cc(Cl)cc(NS(C)(=O)=O)c2F)n1`; also: assay procedure not described here
Return: > 30 µM
